- MEASUREMENT TARGET: T1, HLA-A*03:01 (human)
- T1 construct: Peptide-receptive MHC class I monomer made by UV cleavage of a UV-sensitive ligand
- PROTOCOL SUMMARY: UV ligand exchange ELISA; exchange yield grade
Provide the reported peptide exchange yield of each item.

# get_value(readout='peptide exchange yield', item= `KARKSAGAAK` )
50 to 75%

Param item = `SVLDLSVHK` ; retrieve measured peptide exchange yield.
20 to 50%

Can you look up the measured peptide exchange yield of `RIKPPGPTAVPK` for me?
50 to 75%

Recorded peptide exchange yield for `ATGAATPKK` , please?
50 to 75%

Which peptide exchange yield value belongs to `SVSSSTHFTR` ?
20 to 50%

Form field: reported peptide exchange yield of `RVYNIYIRR`
20 to 50%

Need peptide exchange yield of `RIYDEILQSK` , thanks.
20 to 50%

GET /values?readout=peptide exchange yield&item= `KTSNIVKIK`
20 to 50%

Give the measured peptide exchange yield of `SVAHLLSKY` .
20 to 50%

Recorded peptide exchange yield of `VVFPFPVNK` , please.
50 to 75%

Given `RSKEYIRKK` , state its recorded peptide exchange yield.
10 to 20%

# input binder: `KTLPAMLGTGK` ; wanted: its peptide exchange yield
20 to 50%

Could you tell me which peptide exchange yield is on file for `KVYDPVSEY` ?
20 to 50%

# input binder: `ATYNKQPMYR` ; wanted: its peptide exchange yield
50 to 75%

So what does the record say about peptide exchange yield for `KAFNQSSTLTK` ?
50 to 75%

I am curious: what peptide exchange yield value has been reported for `KLMETSMGF` ?
20 to 50%

Can you look up the measured peptide exchange yield of `KLNPQQAPLY` for me?
20 to 50%

Endpoint output: peptide exchange yield of `VILESIFLK` . Value?
20 to 50%

Give the measured peptide exchange yield of `ASTTVLALK` .
20 to 50%

peptide exchange yield lookup needed for `SVFEGDSIVLK` , thanks.
20 to 50%

Consider the binder `RIKAPSRNTIQK` and give its measured peptide exchange yield.
20 to 50%

Data request, read-out peptide exchange yield, for `TTVPHVFSK`
20 to 50%

Give the measured peptide exchange yield of `LLWHWDTTQSLK` .
10 to 20%

Would you kindly share the measured peptide exchange yield for `RMYSQLKTLQK` ?
50 to 75%

Which peptide exchange yield reading was recorded for the binder `KATGAATPK` ?
20 to 50%

# peptide exchange yield lookup, item `SVYSETSNMDK`
50 to 75%

Quick check: peptide exchange yield of `KAKAAAKPK` ?
20 to 50%

Give the measured peptide exchange yield of `RVLTGVFTK` .
20 to 50%

Suppose we examine the binder `KAKKPAGAAK` ; what peptide exchange yield value has been reported?
50 to 75%

// peptide exchange yield lookup, key: `ATKSPAKPK`
50 to 75%

Requested read-out: peptide exchange yield. Entry: `RTYGFVLTF`
20 to 50%

Please look up its peptide exchange yield: `SISNLVFTY`
20 to 50%
